- runDescription: PhoP regulon inhibitors, Salmonella typhi PhoP promoter GFP reporter, confirmatory (AID 1850);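 note: 0% = induced wells with vehicle and 100% = uninduced wells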
- conditionsUsed: fluorescence, 4 h, at 50 µM, stronger effect = higher value
Hit rate of the full screen: of about 310,000 compounds, about 1,000 (0.32%) were called active. The list is a sample of the results. Results with a measured potency or affinity are listed apart.
// values below are reported inhibition

[
  {
    "compound": "O=C(C[n+]1cc(-c2ccc(Cl)cc2)n2c1CCC2)Nc1nc(-c2ccc(F)cc2)cs1",
    "inhibition [%]": -19
  },
  {
    "compound": "CCOC(=O)c1c(NC(=O)Cn2nc(C(=O)O)c3ccccc3c2=O)sc2c1CCC(C)C2 (configuration not stated)",
    "inhibition [%]": 17.9
  },
  {
    "compound": "COc1ccccc1CN1C[C@@H]2C[C@@H](c3ccccc3C)N3CCC[C@@]23C1=O",
    "inhibition [%]": -4.27
  },
  {
    "compound": "CN1CCC2(CC1)N=C(c1ccc(F)cc1)C(=S)N2C(=O)c1ccccc1",
    "inhibition [%]": -2.67
  },
  {
    "compound": "Cc1cc(C(=O)Cn2nc(C(=O)O)c3ccccc3c2=O)c(C)n1CC(F)(F)F",
    "inhibition [%]": -16
  },
  {
    "compound": "Cc1ccc(-n2ncc3c(SCc4ccccn4)ncnc32)c(C)c1",
    "inhibition [%]": -1.44
  },
  {
    "compound": "CCCCCC(O)CCC(=O)NNC1=CC(=O)CC(C)(C)C1 (configuration not stated)",
    "inhibition [%]": 5.33
  },
  {
    "compound": "CC(=O)N1CCN(S(=O)(=O)c2cccc(C(=O)NNC(=O)COc3ccc(Cl)cc3C)c2)CC1",
    "inhibition [%]": 3.91
  },
  {
    "compound": "CCOC(=O)c1cnc2ccc(OC)cc2c1NCCN1CCOCC1",
    "inhibition [%]": -3.63
  },
  {
    "compound": "CC(NCc1ccncc1)C12CC3CC(CC(C3)C1)C2 (configuration not stated)",
    "inhibition [%]": 2.47
  },
  {
    "compound": "Cc1cccc(Nc2cc(C)nc3ccccc23)c1",
    "inhibition [%]": 5.71
  },
  {
    "compound": "COc1ccc2c(c1OC)C(=O)N(c1ccccc1)C2=O",
    "inhibition [%]": 9.99
  },
  {
    "compound": "Cc1cc(N/N=C/c2ccc(O)cc2O)c2ccccc2n1",
    "inhibition [%]": -3.45
  },
  {
    "compound": "CS(=O)(=O)N1CCC(Oc2ccccc2C(=O)NC2CCCCCC2)CC1",
    "inhibition [%]": -17.3
  },
  {
    "compound": "CCn1cc(C(=O)NN)c(=O)c2cc(F)c(N3CCOCC3)cc21",
    "inhibition [%]": -10.2
  },
  {
    "compound": "Cc1ccc(NC(=O)c2cc(NC(=O)C3CC=CCC3C(=O)O)ccc2N2CCOCC2)cc1 (configuration not stated)",
    "inhibition [%]": -15.3
  },
  {
    "compound": "COc1ccc(-n2nc(C(=O)NCC(=O)NCc3ccccc3OC)c3ccccc3c2=O)cc1",
    "inhibition [%]": 8.47
  },
  {
    "compound": "O=C(CSc1ccc(-c2cccnc2)nn1)N1CCCCCC1",
    "inhibition [%]": 1.55
  },
  {
    "compound": "O=C(NCCC1=CCCCC1)c1cc(S(=O)(=O)N2CCOCC2)ccc1Cl",
    "inhibition [%]": -3.59
  },
  {
    "compound": "CN(CC(=O)NCc1ccncc1)S(=O)(=O)c1ccc(F)cc1",
    "inhibition [%]": 9.34
  },
  {
    "compound": "O=C(Nc1nc(-c2cccc([N+](=O)[O-])c2)cs1)c1cccc([N+](=O)[O-])c1C(=O)O",
    "inhibition [%]": 5.24
  },
  {
    "compound": "O=C(NCN1CCN(c2ccccc2F)CC1)c1ccccc1",
    "inhibition [%]": 0.63
  },
  {
    "compound": "COc1ccc(-c2ccc(CCC(=O)O)n2NC(=O)c2cccs2)cc1",
    "inhibition [%]": -5.76
  },
  {
    "compound": "CC(NC(=O)CNC(=O)c1sc2ccccc2c1Cl)c1ccc(S(N)(=O)=O)cc1 (configuration not stated)",
    "inhibition [%]": 3.29
  },
  {
    "compound": "CC(CC12CC3CC(CC(C3)C1)C2)NCc1ccccc1O (configuration not stated)",
    "inhibition [%]": 0.38
  },
  {
    "compound": "COC(=O)[C@@H](NC(=O)N1CCC(Cc2ccccc2)CC1)C(C)C",
    "inhibition [%]": -13.1
  },
  {
    "compound": "CC(Sc1nnc(N)s1)C(=O)Nc1ccc2c(c1)OCCO2 (configuration not stated)",
    "inhibition [%]": -3.64
  },
  {
    "compound": "CCCCCCNC(=O)c1cn(CC)c2cc(N3CCN(C)CC3)c(F)cc2c1=O",
    "inhibition [%]": -4.8
  },
  {
    "compound": "CCn1cc(C(=O)NN)c(=O)c2cc(F)c(N3CCN(C)CC3)cc21",
    "inhibition [%]": 3.76
  },
  {
    "compound": "CN1CCC2(CC1)N=C(c1ccc(F)cc1)C(=S)N2C(=O)c1ccc(C(C)(C)C)cc1",
    "inhibition [%]": 17.9
  },
  {
    "compound": "O=S(CCc1ccncc1)Cc1ccccc1 (configuration not stated)",
    "inhibition [%]": 4.99
  },
  {
    "compound": "Cc1ccc(NC(=O)C[n+]2cc(-c3ccc(C)cc3)n3c2CCC3)cc1",
    "inhibition [%]": 14.9
  },
  {
    "compound": "CCn1cc(C(=O)NCC2CCCO2)c(=O)c2cc(F)c(N3CCN(C)CC3)cc21 (configuration not stated)",
    "inhibition [%]": 1.91
  },
  {
    "compound": "O=C1[C@@H]2C(c3cccnc3)=NO[C@@H]2C(=O)N1c1ccc(Br)cc1",
    "inhibition [%]": -5.51
  },
  {
    "compound": "Cc1ccc(-c2nnn(CC(=O)Nc3ccccc3N3CCOCC3)n2)cc1",
    "inhibition [%]": -3.19
  },
  {
    "compound": "COc1ccccc1NC(=O)CSc1nnc(Cc2ccccc2)o1",
    "inhibition [%]": -0.38
  },
  {
    "compound": "CCNC(=S)N1CCNC(=O)C1CC(=O)OC (configuration not stated)",
    "inhibition [%]": -0.49
  }
]
